- Test system: PPARg DBDmut:RXRa IVT, anti-PPARg (DBD mutation: PPARg1 K132A/R137A, NR concentration 270 nM, RXRa partner concentration 90 nM)
- protocol: PBM binding z-score (relative to random genomic background probes); higher = stronger binding; sequences stand for … in GC…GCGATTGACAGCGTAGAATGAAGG
Note to self: class labels come from recorded PBM binding z-score, ranges listed here: L: < -0.02; M: ≥ -0.02 and < 1; H: ≥ 1

Worked examples, 8 sequences total:
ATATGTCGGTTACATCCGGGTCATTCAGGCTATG H
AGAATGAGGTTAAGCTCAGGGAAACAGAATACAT M
ATATGTAGGTTATCGGGTCATTGAGTTTGCGCAT H
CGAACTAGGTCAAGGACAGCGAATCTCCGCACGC H
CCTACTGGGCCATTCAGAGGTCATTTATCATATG H
TCTCGGAGGACACGAAAGGTTAGAGCTCGACATC L
GATACCGGGTCAAGGCCAGAGTACGCGTATTGAT M
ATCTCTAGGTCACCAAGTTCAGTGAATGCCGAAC H

Category lookup for the sequence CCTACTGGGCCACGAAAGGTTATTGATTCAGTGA
M

Query CGCCCAAGGTCATAGGAGGTCAGTGAAGACAGAT next
L

Query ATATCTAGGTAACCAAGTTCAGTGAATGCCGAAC next
H

---

- Test system: RARg:RXRa (NR concentration 270 nM, RXRa partner concentration 90 nM)
- protocol: PBM binding z-score (relative to random genomic background probes); higher = stronger binding; sequences stand for … in GC…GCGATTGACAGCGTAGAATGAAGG
Catalogue of PBM binding z-score values

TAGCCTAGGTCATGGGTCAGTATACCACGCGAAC 5.09
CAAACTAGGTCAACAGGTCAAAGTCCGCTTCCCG 6.85
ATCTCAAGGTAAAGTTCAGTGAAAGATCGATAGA 2.43
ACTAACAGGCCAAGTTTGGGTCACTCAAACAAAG 2.88
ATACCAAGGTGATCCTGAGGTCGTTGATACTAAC 2.54
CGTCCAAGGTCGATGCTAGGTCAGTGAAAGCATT 4.58
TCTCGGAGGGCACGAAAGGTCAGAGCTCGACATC 6.01
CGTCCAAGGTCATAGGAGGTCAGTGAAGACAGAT 6.63
ATCTCTAGGTAAAGTTCAGTTAAAGATCGATAGA 1.65
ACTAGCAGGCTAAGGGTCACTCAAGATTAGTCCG 3.88

Can you look up PBM binding z-score on RARg:RXRa (NR concentration 270 nM, RXRa partner concentration 90 nM) for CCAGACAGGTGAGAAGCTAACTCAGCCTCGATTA ?
-0.181

Query ATTTCTAGGTAACCAAGTTCAGTGAATGCCGAAC next
0.786

---

- Tested on: RARg homodimer (NR concentration 270 nM)
- protocol: PBM binding z-score (relative to random genomic background probes); higher = stronger binding; sequences stand for … in GC…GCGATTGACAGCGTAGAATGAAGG
Note to self: class labels come from recorded PBM binding z-score, ranges listed here: bottom range: < 0.7; center range: ≥ 0.7 and < 2; top range: ≥ 2

Worked examples, 6 sequences total:
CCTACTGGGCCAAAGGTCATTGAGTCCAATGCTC top range
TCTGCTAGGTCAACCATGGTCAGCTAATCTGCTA top range
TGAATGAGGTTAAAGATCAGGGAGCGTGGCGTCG bottom range
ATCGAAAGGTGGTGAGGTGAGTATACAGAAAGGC center range
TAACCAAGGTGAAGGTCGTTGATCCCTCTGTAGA center range
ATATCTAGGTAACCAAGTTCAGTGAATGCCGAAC center range

Please turn your attention to the following entry.
Category lookup for the sequence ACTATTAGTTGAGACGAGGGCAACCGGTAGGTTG
bottom range

---

Catalogue of PBM binding z-score values
- Tested on: PPARg:RXRa (NR concentration 180 nM, RXRa partner concentration 90 nM)
- protocol: PBM binding z-score (relative to random genomic background probes); higher = stronger binding; sequences stand for … in GC…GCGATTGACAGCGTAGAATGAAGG
Returns: the value as a bare number; no unit string appended.

// worked examples, PBM binding z-score included
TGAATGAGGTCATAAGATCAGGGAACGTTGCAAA 6.96
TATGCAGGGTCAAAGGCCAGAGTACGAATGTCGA 7.42
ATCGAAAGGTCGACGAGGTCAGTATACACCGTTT 3.64
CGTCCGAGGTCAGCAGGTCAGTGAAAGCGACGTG 5.32
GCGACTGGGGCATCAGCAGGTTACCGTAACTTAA 0.623

Fill in: PBM binding z-score of TCTGCTAGGTCAACGAAGGTCAGCTAATCTGCTA is ___
3.83

---

Catalogue of PBM binding z-score values
- Tested on: PPARa:RXRa (NR concentration 270 nM, RXRa partner concentration 90 nM)
- protocol: PBM binding z-score (relative to random genomic background probes); higher = stronger binding; sequences stand for … in GC…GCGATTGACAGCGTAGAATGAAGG

// worked examples, PBM binding z-score included
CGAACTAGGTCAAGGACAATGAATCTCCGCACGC 4.72
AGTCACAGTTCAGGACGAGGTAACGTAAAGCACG 1.35
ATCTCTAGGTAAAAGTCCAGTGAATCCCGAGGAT 0.598
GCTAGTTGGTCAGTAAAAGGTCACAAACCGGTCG 4.53

Can you look up PBM binding z-score on PPARa:RXRa (NR concentration 270 nM, RXRa partner concentration 90 nM) for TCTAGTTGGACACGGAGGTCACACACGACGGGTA ?
3.68

Query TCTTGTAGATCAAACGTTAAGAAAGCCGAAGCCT next
0.988

---

- Test system: VDR homodimer (NR concentration 270 nM)
- protocol: PBM binding z-score (relative to random genomic background probes); higher = stronger binding; sequences stand for … in GC…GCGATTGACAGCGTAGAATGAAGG
measured_metric: PBM binding z-score
Returns: the value as a bare number; no unit string appended.

// worked examples, PBM binding z-score included
CTACCAAGGTGAACAAGGTCGTTGATTACTATTC 2.28
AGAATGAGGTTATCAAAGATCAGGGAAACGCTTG 0.495
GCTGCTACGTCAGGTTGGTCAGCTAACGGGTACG -0.226
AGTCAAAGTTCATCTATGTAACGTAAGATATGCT 4.62
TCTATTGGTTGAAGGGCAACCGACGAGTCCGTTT 1.24
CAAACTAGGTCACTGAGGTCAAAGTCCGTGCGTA 7.63

Fill in: PBM binding z-score of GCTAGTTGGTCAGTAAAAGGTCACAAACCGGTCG is ___
1.71

Query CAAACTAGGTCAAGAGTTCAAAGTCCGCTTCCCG next
7.25

Query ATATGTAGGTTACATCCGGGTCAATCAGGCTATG next
1.72

Query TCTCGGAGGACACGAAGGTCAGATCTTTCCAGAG next
2.36

Query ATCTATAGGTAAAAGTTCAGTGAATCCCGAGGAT next
1.46

---

- Tested on: RARg homodimer (NR concentration 270 nM)
- protocol: PBM binding z-score (relative to random genomic background probes); higher = stronger binding; sequences stand for … in GC…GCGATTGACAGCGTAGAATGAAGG
Catalogue of PBM binding z-score values
Returns: the value as a bare number; no unit string appended.

// worked examples, PBM binding z-score included
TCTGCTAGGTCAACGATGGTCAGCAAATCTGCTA 5.26
CCTAATTGGTCAGGAGGTCACACACCGGATATGA 4.47
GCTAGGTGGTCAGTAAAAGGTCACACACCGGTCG 5.47
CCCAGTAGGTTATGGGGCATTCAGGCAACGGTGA 0.48

Fill in: PBM binding z-score of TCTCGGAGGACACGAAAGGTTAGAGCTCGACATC is ___
2.3

Query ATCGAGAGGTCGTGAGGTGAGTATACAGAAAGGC next
3.28

---

- Test system: PPARg:RXRa (NR concentration 180 nM, RXRa partner concentration 90 nM)
- protocol: PBM binding z-score (relative to random genomic background probes); higher = stronger binding; sequences stand for … in GC…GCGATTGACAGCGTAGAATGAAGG
Catalogue of PBM binding z-score values
Returns: the value as a bare number; no unit string appended.

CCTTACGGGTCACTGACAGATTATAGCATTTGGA 4.31
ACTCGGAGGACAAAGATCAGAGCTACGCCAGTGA 1.61
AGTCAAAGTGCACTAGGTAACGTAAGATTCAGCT 3.36
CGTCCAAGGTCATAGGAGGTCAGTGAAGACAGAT 5.77

Fill in: PBM binding z-score of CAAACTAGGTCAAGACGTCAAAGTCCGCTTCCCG is ___
7.43

Query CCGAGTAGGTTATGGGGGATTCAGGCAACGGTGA next
2.34

Query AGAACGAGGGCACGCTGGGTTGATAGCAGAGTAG next
2.01

Query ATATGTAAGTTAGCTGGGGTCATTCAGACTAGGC next
1.49

Query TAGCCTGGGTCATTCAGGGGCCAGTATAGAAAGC next
2.29

Query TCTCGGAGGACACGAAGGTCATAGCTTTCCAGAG next
1.09

Query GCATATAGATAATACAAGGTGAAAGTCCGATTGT next
1.21

Query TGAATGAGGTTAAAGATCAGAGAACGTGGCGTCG next
6.08

Query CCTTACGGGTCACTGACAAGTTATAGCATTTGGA next
4.26

Query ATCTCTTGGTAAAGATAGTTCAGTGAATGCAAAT next
0.212

Query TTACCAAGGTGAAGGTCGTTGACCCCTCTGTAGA next
3.79

Query TCTTATAGGTAAACAGGTGAAAGTCCGTAAGTTA next
2.7

Query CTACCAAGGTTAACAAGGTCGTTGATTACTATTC next
1.03

Query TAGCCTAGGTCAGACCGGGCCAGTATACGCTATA next
0.828

Query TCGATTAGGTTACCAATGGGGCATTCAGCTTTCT next
-0.163

Query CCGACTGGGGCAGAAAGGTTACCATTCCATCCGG next
1.48

Query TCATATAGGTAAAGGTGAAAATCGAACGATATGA next
4.11

Query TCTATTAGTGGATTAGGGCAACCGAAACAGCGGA next
0.412

Query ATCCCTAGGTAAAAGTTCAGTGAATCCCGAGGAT next
3.92

Query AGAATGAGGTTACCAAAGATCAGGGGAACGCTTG next
2.74
